Data origin, for the record: paper PMC5540273

For each of the molecules below, state its %Inh.
- Tested on: FLT3-autoinhibited
- applied_conditions: concentration: 1 μM, replicates: in singlicate; n = 1;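 further: KINOMEscan kinase panel screen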
One number for each entry, in %.

Here is how some molecules turned out for %Inh.
c1ccc(-c2cc(-c3c[nH]nc3-c3ccccn3)ccn2)cc1 :: 0
Cc1ccc(NC(=O)c2ccnc(N3CCN(C)CC3)c2)cc1-c1ccc(C(=O)NCC2CC2)cc1 :: 0
O=C(NCCCN1CCOCC1)c1cccc(Nc2nccc(Nc3ccc(Oc4ccccc4)cc3)n2)c1 :: 33
O=C(NCCNc1ccnc(Nc2ccc(F)cc2)n1)c1cc2ccccc2s1 :: 0
O=C(Nc1n[nH]c2cc(-c3cccc(F)c3)ccc12)C1CC1 :: 0
Cn1cc(-c2ccc3c(c2)CCN3C(=O)Cc2ccccc2Cl)c2c(N)ncnc21 :: 20
O=C(NCCNc1ccnc(Nc2ccc(F)cc2)n1)Nc1ccccc1F :: 0
CN(C1=C(c2ccccc2)C(=O)NC1=O)c1ccccc1 :: 3

Below are some molecules; for each one, tell me its %Inh.
1. O=c1cc(N2CCOCC2)nc2n(Cc3cccc4ccccc34)ccn12
2. NS(=O)(=O)c1cccc(-c2ccc3nccc(-c4cccc(S(N)(=O)=O)c4)c3c2)c1
3. Cl.Oc1cccc(Nc2ccnc3cc(-c4ccncc4)ccc23)c1
4. O=C1Cc2cc(Nc3nc(NCc4cccc(S(=O)(=O)C(F)(F)F)c4)ncc3C(F)(F)F)ccc2N1
5. Cc1nnc(-c2ccc3ncc(-c4ccc(S(C)=O)cc4)n3c2)o1 (centres unmarked)

[out]
1: 3; 2: 0; 3: 3; 4: 0; 5: 20

[in] What does the record list as %Inh for `CC(C)Oc1ccc2c(-c3ccnc(Nc4ccc(N5CCN(C)CC5)cc4)n3)cnn2n1` ?
[out] 70

###

- System: CHEK1
- applied_conditions: concentration: 1 μM, replicates: in singlicate; n = 1
I'd appreciate it if you could supply %Inh values for the items below.
Give bare numbers, in %.

For every item in the list below, what is its measured %Inh?
1. COc1cc2c(cc1OC[C@@H](O)CO)ncc1c3ccc(C#N)cc3[nH]c21
2. Cc1ccc(NC(=O)c2ccnc(N3CCN(C)CC3)c2)cc1-c1ccc(C(=O)NCC2CC2)cc1
3. COc1cc2c(cc1OCCN1CCN(C)CC1)ncc1c3ccc(C#N)cc3[nH]c21
4. Nc1nc(-c2ccc3c(N)n[nH]c3c2)cc(N2CCCC2)n1

[out]
7
0
83
9

###

For each entry below, report its %Inh value.
- Test system: STK33
- applied_conditions: concentration: 1 μM, replicates: in singlicate; n = 1
Include the unit right after the number.

Some entries whose results are on file:
Cc1cccc(-c2nc(Nc3ccc4ncsc4c3)c3ccccc3n2)n1 :: 57%
O=C(NCCNc1ccnc(Nc2ccc(F)cc2)n1)Nc1ccccc1F :: 0%
CCn1cnc2c(N)ncnc21 :: 10%
NS(=O)(=O)CCc1cccc(Nc2nccc(-c3c(-c4cccc(NC(=O)c5c(F)cccc5F)c4)nn4ccccc34)n2)c1 :: 0%

Please find the next compound below.
[in] Please look up its %Inh: `Nc1nc(-c2ccc3c(N)n[nH]c3c2)cc(N2CCCC2)n1`
[out] 0%

###

Would you mind telling me the reported %Inh of each entry?
- Test system: TAOK2
- applied_conditions: concentration: 1 μM, replicates: in singlicate; n = 1
Answers are plain numbers, in %.

Observe how each entry below is paired with its result.
COc1cc(Nc2nccc(N3CCC(NC(=O)c4cccc(NC(C)=O)c4)C3)n2)cc(OC)c1OC (centres unmarked) [GSK1379754] :: 0
COc1ccc(Nc2nccc(N3CCC(NC(=O)Nc4cc(C)ccc4C)C3)n2)cc1 (centres unmarked) [GSK1379741] :: 0
CN1c2ccc(CNc3ccc(F)cc3)cc2-c2c(cnn2C)S1(=O)=O :: 23
O=C(NOCC1CC1)c1ccc(F)c(F)c1Nc1ccc(I)cc1Cl :: 0

Field: next compound
[in] Requested read-out %Inh, target or system TAOK2, entry COc1ccc(COc2cc(-n3cnc4ccccc43)sc2C(N)=O)cc1 [GSK1024304]
[out] 0
